Molecular target: MAP1LC3A (human)
Assay: FP
Details: modification not given
pIC50: −log10 of the molar value.
parameter.measured: pIC50

A. QNLSREWHDVQVSSAY [TPD52L2 E]
B. QNLSRSWHDVQVSSAY [TPD52L2 pS]
// query I would appreciate it if you could say which entry, A or B , has the lower pIC50 value. Refer to your chosen entry by its label in the reply.
// result A
